Test: BET inhibitor-based combinations targeting novel dependencies in MECOM-rearranged (r) AML: OCI-AML3 cell line (AID 2202232); note: nearly all actives have a fitted effect of over 35% in size
Conditions: CellTiter-Glo luminescence, 48 h; OCI-AML3 viability; series mostly up to 46 µM
Records with an inconclusive call do not appear. Activity calls are given as the source filed them. Calls come from the whole dose curve; as a rule, active = well fitted inhibition curve with a large enough effect; inconclusive = small, poorly fitted or top-dose-only effect; inactive = no such curve, though single readings can be large or run the other way.
Thanks in advance; please answer with one of these: 1 (yes) for active, 0 (no) for inactive

Use these answered entries as a reference point.
INSERT INTO assay_data (compound, label) VALUES
  ('N#CCC1(n2cc(-c3ncnc4[nH]ccc34)cn2)CN(C2CCN(C(=O)c3ccnc(C(F)(F)F)c3F)CC2)C1', '1 (yes)'),
  ('C/C(O)=C(\C#N)C(=O)Nc1ccc(C(F)(F)F)cc1', '1 (yes)'),
  ('C[C@H](NC(=O)C(=O)Nc1ccccc1C(C)(C)C)C(=O)N[C@@H](CC(=O)O)C(=O)COc1c(F)c(F)cc(F)c1F', '1 (yes)');

## Input Assay result, entry COCCOC(=O)N1CCN(S(=O)(=O)c2cc(F)c(Oc3ccc(Cl)cc3)c(F)c2)C(C(=O)NO)C1 (configuration not stated) — outcome?
## Output 1 (yes)

## Input Assay result, entry "CCc1ccc(N(CC(C)C)S(=O)(=O)c2ccc(OCC3CCOCC3)c(CO)c2)cc1" — outcome?
## Output 1 (yes)

## Input Assay result, entry "Nc1cccc2c1CN([C@H]1CCC(=O)NC1=O)C2=O" — outcome?
## Output 0 (no)

###

// values below are reported viability
Test: BET inhibitor-based combinations targeting novel dependencies in MECOM-rearranged (r) AML: SET-2 cell line (AID 2202231);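 note: plate controls were DMSO treated cells for no effect and wells without cells for full effect; nearly all actives have a fitted effect of over 35% in size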
Conditions: SET-2 AML cells viability, CellTiter-Glo luminescence, 48 h; hits give low values, concentration not given here
Experimental: Ecotropic viral insertion site 1 (EVI1) is located on chromosome 3q26.2 as part of the MECOM (MDS and EVI1 complex) locus. […] A collection of 2480 mechanistically annotated dugs (MIPE v5.0) was used to screen four 3q26.2 rearranged AML cell lines and three non-3q26.2 rearranged AML cell lines. […] Cell viability was determined by luminescence based, Cell Titer Glo assay (Promega). […] Luminescence readings were taken using a Viewlux (PerkinElmer) with a 2 s exposure time per plate. […]
Results filed as inconclusive are left out.
Give your result in % as a bare value.

// worked examples, viability included
INSERT INTO results (compound, outcome_measure, unit_name, value_observed) VALUES
  ('Cc1noc(C)c1-c1ccc(-c2cc(C(N)=O)c(NC(N)=O)s2)c(O[C@H]2CCNC2)c1', 'viability', '%', 123),
  ('CC(C)n1c(=O)cc(N[C@@H](C)c2ccccc2)[nH]c1=O', 'viability', '%', 110),
  ('CO[C@H]1/C=C/O[C@@]2(C)Oc3c(C)c(O)c4c(O)c(c(/C=N/N5CCN(C)CC5)c(O)c4c3C2=O)NC(=O)/C(C)=C\C=C\[C@H](C)[C@H](O)[C@@H](C)[C@@H](O)[C@@H](C)[C@H](OC(C)=O)[C@@H]1C', 'viability', '%', 90.8),
  ('O=C(O)CC(C(=O)O)n1c(O)c(C2=c3cc(Br)ccc3=NC2=O)sc1=S (stereo not drawn)', 'viability', '%', 100);

## Input Returns the measured viability for the input compound. Input: "Nc1cccc2c1CN([C@H]1CCC(=O)NC1=O)C2=O"
## Output 111

## Input Returns the measured viability for the input compound. Input: "CCC(=O)NC[C@H](Cc1ccc(OCCc2nc(-c3ccccc3)oc2C)cc1)N/C(C)=C\C(=O)c1ccc(C(F)(F)F)cc1"
## Output 111

## Input Returns the measured viability for the input compound. Input: "C[C@]12CC[C@H](O)CC1=CC[C@@H]1[C@@H]2CC[C@]2(C)C(c3cccnc3)=CC[C@@H]12"
## Output 107

## Input Returns the measured viability for the input compound. Input: "COc1cc(C)[nH]c(=O)c1CN1CCc2c(Cl)cc([C@H](OC)C3COC3)c(Cl)c2C1=O"
## Output 112

###

Assay: BET inhibitor-based combinations targeting novel dependencies in MECOM-rearranged (r) AML: AML-194 cell line (AID 2202237; note: nearly all actives have a fitted effect of over 40% in size; note: potency is the fitted concentration of half-maximal effect)
Details: AML-194 (MECOM-r AML) viability, CellTiter-Glo, 48 h; series mostly up to 46 µM
Records with an inconclusive call do not appear. Activity calls are given as the source filed them. Calls follow the shape of the dose curve; as a rule, active = well fitted inhibition curve with a large enough effect; inconclusive = small, poorly fitted or top-dose-only effect; inactive = flat fitted curve, though single readings scatter.
OUTCOME_MEASURE: Potency

INSERT INTO assay_data (compound, value_observed) VALUES
  ('COc1ccc(S(=O)(=O)N2CCc3cccc(-c4ccncc4)c32)cc1', '0.934 µM (active)'),
  ('COc1ccc(CC2c3cc(OC)c(OC)cc3CC[N+]2(C)CCC(=O)OCCCCCOC(=O)CC[N+]2(C)CCc3cc(OC)c(OC)cc3C2Cc2ccc(OC)c(OC)c2)cc1OC (centres undefined)', 'inactive'),
  ('C[C@H](NC(=O)/C(C#N)=C/c1cccc(Br)n1)c1ccccc1', '9.34 µM (active)'),
  ('O=C1S/C(=C\c2ccc(OCc3cccc(B(O)O)c3)cc2)C(=O)N1Cc1ccc(F)cc1', 'inactive');

###

Biological target: Aldehyde dehydrogenase, mitochondrial (Homo sapiens)
Test: qHTS for Inhibitors of the Aldehyde Dehydrogenase Family (ALDH2) Primary screen (AID 2061308);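 note: plate controls were vehicle for no effect and reference inhibitor for full effect; nearly all actives have a fitted effect of over 55% in size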
Conditions: ALDH2 enzyme inhibition qHTS, 1536-well; series mostly up to 56 µM
Records with an inconclusive call do not appear. Calls of active or inactive are those of the source. Calls come from the whole dose curve; as a rule, active = well fitted inhibition curve with a large enough effect; inconclusive = small, poorly fitted or top-dose-only effect; inactive = flat fitted curve, though single readings scatter.
OUTCOME_MEASURE: outcome

// worked examples, outcome included
INSERT INTO measurements (compound, value_observed) VALUES
  ('Cc1cc(C)n2ncc(C(=O)Nc3ccc4c(c3)OCCO4)c2n1', 'inactive'),
  ('COc1ccccc1OCCN1CC(COc2cccc3[nH]c4ccccc4c23)OCC1=O (stereo not given)', 'inactive'),
  ('COc1ccc(C)cc1NC(=O)C(OC(=O)CNC(=O)c1ccccc1)c1ccccc1 (stereo not given)', 'inactive'),
  ('C=CS(=O)(=O)NC1CCN(C(=O)CNc2cc(I)c(Cl)cc2OC)CC1', 'inactive'),
  ('O=C(Cn1nc(-c2ccc3c(c2)OCO3)ccc1=O)NCCc1ccccc1', 'inactive');

## Input Returns the measured outcome for the input compound. Input: "O=C(O)c1ccc(Cc2c(-c3cccc(-c4ccccc4)c3)[nH]n(-c3nc(C(=O)O)cs3)c2=O)cc1"
## Output inactive

## Input Returns the measured outcome for the input compound. Input: "N#Cc1ccccc1CCc1nc2ncc(Br)cc2[nH]1"
## Output inactive

## Input Returns the measured outcome for the input compound. Input: "Cn1ncc(Cl)c1-c1cc(C(=O)N[C@H](CN)Cc2ccc(F)c(F)c2)sc1Cl"
## Output inactive

## Input Returns the measured outcome for the input compound. Input: CCn1c(N)c(C(=O)NC)c(=O)c2ccc(C#CC(C)(O)COC)nc21 (stereo not given)
## Output inactive

## Input Returns the measured outcome for the input compound. Input: "O=C(Nc1ccccc1)C1CCN(c2nc(-c3ccc(Br)cc3)cs2)CC1"
## Output inactive

###

Experiment: BET inhibitor-based combinations targeting novel dependencies in MECOM-rearranged (r) AML: OCI-AML3 cell line (AID 2202232); note: nearly all actives have a fitted effect of over 35% in size
Settings: CellTiter-Glo luminescence, 48 h; OCI-AML3 viability; series mostly up to 46 µM
Inconclusive results are not listed. Calls of active or inactive are those of the source. The call rests on the fitted dose curve; in most records, active means well fitted inhibition curve with a large enough effect; inconclusive means small, poorly fitted or top-dose-only effect; inactive means no such curve, though single readings can be large or run the other way.
Thanks in advance; please answer with one of these: True (active), False (inactive)

INSERT INTO assay_data (molecule, label) VALUES
  ('O=c1cc(O)c(Cl)c[nH]1', 'False'),
  ('OC1CCC([C@H](O)C[C@H]2c3c(F)cccc3-c3cncn32)CC1 (stereo not given in full)', 'False'),
  ('CN(C)c1ccc(Nc2nc(N)n(C(=O)c3c(F)cccc3F)n2)cc1', 'True'),
  ('O=C1NC(=O)[C@@H](c2c[nH]c3ccccc23)[C@H]1c1cn2c3c(cccc13)CCC2', 'True'),
  ('Cc1ccc(Sc2ccccc2N2CCNCC2)c(C)c1', 'True'),
  ('CC(C)OC(=O)[C@H](C)N[P@](=O)(OC[C@H]1O[C@@H](n2ccc(=O)[nH]c2=O)[C@](C)(F)[C@@H]1O)Oc1ccccc1', 'False');

## Input Assay result, entry "CN(C)c1ccc(-c2nc3ncc(Cl)c(N4CCN(CC(=O)Nc5nccs5)CC4)c3[nH]2)cc1" — outcome?
## Output True

## Input Assay result, entry "COCCNCCCn1c(C(=O)CF)c(-c2ccc(C)cc2)c2c(N)ncnc21" — outcome?
## Output True

## Input Assay result, entry "Cn1cc(CNCC2CCN(c3ncc(C(=O)NO)cn3)CC2)c2ccccc21" — outcome?
## Output True

## Input Assay result, entry "Nc1ncc(C(=O)NC2CN(C(=O)C3CC3)C2)c2ccc(-c3cccc(F)c3)nc12" — outcome?
## Output True
